Source: the supplement of paper PMC11246515

# RUN DESCRIPTION: total protein half-life in vivo (active degradation + dilution); higher = more stable protein
# APPLIED CONDITIONS: wild type E. coli NCM3722; growth: C-lim chemostat; doubling time 12 h
QUANTITY: total protein half-life in vivo (h)
Hi! Could you send only the number? It should be in h, unit omitted.

The following sequences have reported results that may help.
# PRIMARY SEQUENCE, NUMERIC RESULT
records = [
    ("MKNKLPPFIEIYRALIATPSISATEEALDQSNADLITLLADWFKDLGFNVEVQPVPGTRNKFNMLASIGQGAGGLLLAGHTDTVPFDDGRWTRDPFTLTEHDGKLYGLGTADMKGFFAFILDALRDVDVTKLKKPLYILATADEETSMAGARYFAETTALRPDCAIIGEPTSLQPVRAHKGHISNAIRIQGQSGHSSDPARGVNAIELMHDAIGHILQLRDNLKERYHYEAFTVPYPTLNLGHIHGGDASNRICACCELHMDIRPLPGMTLNELNGLLNDALAPVSERWPGRLTVDELHPPIPGYECPPNHQLVEVVEKLLGAKTEVVNYCTEAPFIQTLCPTLVLGPGSINQAHQPDEYLETRFIKPTRELITQVIHHFCWH", 10.9),
    ("MLIIKRSVAIIAILFSPLSTASNLTSQLHNFFSAQLAGVSDEVRVSIRTAPNLLPPCEQPLLSMSNNSRLWGNVNVLARCGNDKRYLQVNVQATGNYVVAAMPIARGGKLEAGNVKLKRGRLDTLPPRTVLDINQLVDAISLRDLSPDQPIQLTQFRQAWRVKAGQRVNVIASGDGFSANAEGQALNNAAVAQNARVRMVSGQVVSGVVDADGNILINL", 2.23),
    ("MKKIPLGTTDITLSRMGLGTWAIGGGPAWNGDLDRQICIDTILEAHRCGINLIDTAPGYNFGNSEVIVGQALKKLPREQVVVETKCGIVWERKGSLFNKVGDRQLYKNLSPESIREEVAASLQRLGIDYIDIYMTHWQSVPPFFTPIAETVAVLNELKSEGKIRAIGAANVDADHIREYLQYGELDIIQAKYSILDRAMENELLPLCRDNGIVVQVYSPLEQGLLTGTITRDYVPGGARANKVWFQRENMLKVIDMLEQWQPLCARYQCTIPTLALAWILKQSDLISILSGATAPEQVRENVAALNINLSDADATLMREMAEALER", 8.09),
]

Query: Name the recorded total protein half-life in vivo for MSQTSTLKGQCIAEFLGTGLLIFFGVGCVAALKVAGASFGQWEISVIWGLGVAMAIYLTAGVSGAHLNPAVTIALWLFACFDKRKVIPFIVSQVAGAFCAAALVYGLYYNLFFDFEQTHHIVRGSVESVDLAGTFSTYPNPHINFVQAFAVEMVITAILMGLILALTDDGNGVPRGPLAPLLIGLLIAVIGASMGPLTGFAMNPARDFGPKVFAWLAGWGNVAFTGGRDIPYFLVPLFGPIVGAIVGAFAYRKLIGRHLPCDICVVEEKETTTPSEQKASL [P0AER0] .
Response: 6.36

Query: Consider the sequence MTIYTLSHGSLKLDVSDQGGVIEGFWRDTTPLLRPGKKSGVATDASCFPLVPFANRVSGNRFVWQGREYQLQPNVEWDAHYLHGDGWLGEWQCVSHSDDSLCLVYEHRSGVYHYRVSQAFHLTADTLTVTLSVTNQGAETLPFGTGWHPYFPLSPQTRIQAQASGYWLEREQWLAGEFCEQLPQELDFNQPAPLPRQWVNNGFAGWNGQARIEQPQEGYAIIMETTPPAPCYFIFVSDPAFDKGYAFDFFCLEPMSHAPDDHHRPEGGDLIALAPGESTTSEMSLRVEWL and give its measured total protein half-life in vivo.
Response: 10.7

Query: I would be grateful if you could share the reported total protein half-life in vivo for MSESVQSNSAVLVHFTLKLDDGTTAESTRNNGKPALFRLGDASLSEGLEQHLLGLKVGDKTTFSLEPDAAFGVPSPDLIQYFSRREFMDAGEPEIGAIMLFTAMDGSEMPGVIREINGDSITVDFNHPLAGQTVHFDIEVLEIDPALEA [P0AEM0] .
Response: 9.21

Query: Requested field: total protein half-life in vivo. Item: MIYIGLPQWSHPKWVRLGITSLEEYARHFNCVEGNTTLYALPKPEVVLRWREQTTDDFRFCFKFPATISHQAALRHCDDLVTEFLTRMSPLAPRIGQYWLQLPATFGPRELPALWHFLDSLPGEFNYGVEVRHPQFFAKGEEEQTLNRGLHQRGVNRVILDSRPVHAARPHSEAIRDAQRKKPKVPVHAVLTATNPLIRFIGSDDMTQNRELFQVWLQKLAQWHQTTTPYLFLHTPDIAQAPELVHTLWEDLRKTLPEIGAVPAIPQQSSLF
Response: 8.14

Query: Request the reported total protein half-life in vivo associated with MNKFEDIRGVAFDLDGTLVDSAPGLAAAVDMALYALELPVAGEERVITWIGNGADVLMERALTWARQERATQRKTMGKPPVDDDIPAEEQVRILRKLFDRYYGEVAEEGTFLFPHVADTLGALQAKGLPLGLVTNKPTPFVAPLLEALDIAKYFSVVIGGDDVQNKKPHPDPLLLVAERMGIAPQQMLFVGDSRNDIQAAKAAGCPSVGLTYGYNYGEAIDLSQPDVIYQSINDLLPALGLPHSENQESKND
Response: 8.69

Query: Fill in the blank: the reported total protein half-life in vivo of MSFFISDAVAATGAPAQGSPMSLILMLVVFGLIFYFMILRPQQKRTKEHKKLMDSIAKGDEVLTNGGLVGRVTKVAENGYIAIALNDTTEVVIKRDFVAAVLPKGTMKAL [P0ADZ7] is ____.
Response: 11.5

Query: What value of total protein half-life in vivo has been reported for the following sequence? MKRMIALDGAQGEGGGQILRSALSLSMITGQPFTITSIRAGRAKPGLLRQHLTAVKAATEICGATVEGAELGSQRLLFRPGTVRGGDYRFAIGSAGSCTLVLQTVLPALWFADGPSRVEVSGGTDNPSAPPADFIRRVLEPLLAKIGIHQQTTLLRHGFYPAGGGVVATEVSPVASFNTLQLGERGNIVQMRGEVLLAGVPRHVAEREIATLAGSFSLHEQNIHNLPRDQGPGNTVSLEVESENITERFFVVGEKRVSAEVVAAQLVKEVKRYLASTAAVGEYLADQLVLPMALAGAGEFTVAHPSCHLLTNIAVVERFLPVRFSLIETDGVTRVSIE
Response: 11.3

Query: Recorded total protein half-life in vivo of MKKLILIAIMASGLVACAQSTAPQEDSRLKEAYSACINTAQGSPEKIEACQSVLNVLKKEKQHQQFADQESVRVLDYQQCLRATQTGNDQAVKADCDKVWQEIRSNNK , please.
Response: 9.68

====

# RUN DESCRIPTION: total protein half-life in vivo (active degradation + dilution); higher = more stable protein
# APPLIED CONDITIONS: wild type E. coli NCM3722; growth: C-lim chemostat; doubling time 3 h
The following sequences are shown together with reported total protein half-life in vivo values.

# PRIMARY SEQUENCE, total protein half-life in vivo
rows = [
    ("MSEKLQKVLARAGHGSRREIESIIEAGRVSVDGKIAKLGDRVEVTPGLKIRIDGHLISVRESAEQICRVLAYYKPEGELCTRNDPEGRPTVFDRLPKLRGARWIAVGRLDVNTCGLLLFTTDGELANRLMHPSREVEREYAVRVFGQVDDAKLRDLSRGVQLEDGPAAFKTIKFSGGEGINQWYNVTLTEGRNREVRRLWEAVGVQVSRLIRVRYGDIPLPKGLPRGGWTELDLAQTNYLRELVELPPETSSKVAVEKDRRRMKANQIRRAVKRHSQVSGGRRSGGRNNNG", "2.92 h"),
]

Here's the next entry for you.
Query: Please report the recorded total protein half-life in vivo for MNAEKSPVNHNVDHEEIAKFEAVASRWWDLEGEFKPLHRINPLRLGYIAERAGGLFGKKVLDVGCGGGILAESMAREGATVTGLDMGFEPLQVAKLHALESGIQVDYVQETVEEHAAKHAGQYDVVTCMEMLEHVPDPQSVVRACAQLVKPGGDVFFSTLNRNGKSWLMAVVGAEYILRMVPKGTHDVKKFIKPAELLGWVDQTSLKERHITGLHYNPITNTFKLGPGVDVNYMLHTQNK .
Response: 2.45 h
